For each entry below, report its ΔTm value.
System: Nucleic Acid
assay.explanation: Photobinding to Poly(dA-dT)-Poly(dA-dT)-DNA in dark, determined by the shift of thermal transition temperature
Type: nucleic-acid assay
Numbers only, in °C.

CCOCc1c(C)oc2c(C)c3oc(=O)cc(C)c3cc12 :: 1
COCc1c(C)oc2c(C)c3oc(=O)cc(C)c3cc12 :: 0.5
Cc1coc2cc3oc(=O)ccc3cc12 :: 1
CCOc1c2ccoc2c(OCC)c2oc(=O)ccc12 :: 0.5
COc1c2ccoc2cc2oc(=O)ccc12 :: 0.5

Provide the reported ΔTm of each entry below, same order.
1. CCOCc1c2ccoc2c(OC)c2oc(=O)ccc12
2. COCc1cc(=O)oc2cc3occ(C)c3cc12
3. COc1c2ccoc2c(OC)c2oc(=O)ccc12
4. CC1COc2cc3oc(=O)ccc3cc21 (configuration not stated)
5. COCc1c2occc2c(OC)c2ccc(=O)oc12
6. CC[N+](CC)(CC)Cc1c(C)oc2c(C)c3oc(=O)cc(C)c3cc12.[Cl-]
7. COc1c2occc2cc2ccc(=O)oc12

## Output
[2, 0.5, 0.5, 0.5, 1, 7, 1]

* * *

system.under.test: Potassium voltage-gated channel subfamily A member 3 (Mus musculus)
Sequence (P16390 whole entry): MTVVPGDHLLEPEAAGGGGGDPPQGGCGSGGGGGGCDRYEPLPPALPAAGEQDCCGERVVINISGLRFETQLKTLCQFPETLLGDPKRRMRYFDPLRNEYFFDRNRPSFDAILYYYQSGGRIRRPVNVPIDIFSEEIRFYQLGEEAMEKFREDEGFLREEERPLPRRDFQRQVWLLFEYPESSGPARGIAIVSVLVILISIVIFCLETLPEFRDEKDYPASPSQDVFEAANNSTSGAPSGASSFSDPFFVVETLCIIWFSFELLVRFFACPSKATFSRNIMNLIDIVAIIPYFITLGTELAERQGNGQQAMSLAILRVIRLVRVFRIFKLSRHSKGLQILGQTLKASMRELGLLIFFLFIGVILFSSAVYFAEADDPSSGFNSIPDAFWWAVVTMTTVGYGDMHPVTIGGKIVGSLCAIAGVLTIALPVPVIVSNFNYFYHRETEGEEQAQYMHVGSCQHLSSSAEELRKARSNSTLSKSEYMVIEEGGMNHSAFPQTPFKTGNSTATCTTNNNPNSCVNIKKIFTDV
assay.explanation: Blockade of peak Kv1.3 potassium currents
measure.name: pKd
Answers are plain numbers, as −log10 of the molar value.

Sample records with pKd:
COc1c2ccoc2cc2oc(=O)ccc12 :: 4.00
COCc1c2occc2c(OC)c2ccc(=O)oc12 :: 4.55
COCc1cc(=O)oc2cc3occ(C)c3cc12 :: 4.05

Shifting focus to the compound that follows.
## Input Which pKd value is on record for CCOc1c2ccoc2c(OCC)c2oc(=O)ccc12 ?
## Output 4.55

* * *

system.under.test: Potassium voltage-gated channel subfamily A member 1 (Homo sapiens, UniProt Q09470)
Sequence (Q09470 whole entry): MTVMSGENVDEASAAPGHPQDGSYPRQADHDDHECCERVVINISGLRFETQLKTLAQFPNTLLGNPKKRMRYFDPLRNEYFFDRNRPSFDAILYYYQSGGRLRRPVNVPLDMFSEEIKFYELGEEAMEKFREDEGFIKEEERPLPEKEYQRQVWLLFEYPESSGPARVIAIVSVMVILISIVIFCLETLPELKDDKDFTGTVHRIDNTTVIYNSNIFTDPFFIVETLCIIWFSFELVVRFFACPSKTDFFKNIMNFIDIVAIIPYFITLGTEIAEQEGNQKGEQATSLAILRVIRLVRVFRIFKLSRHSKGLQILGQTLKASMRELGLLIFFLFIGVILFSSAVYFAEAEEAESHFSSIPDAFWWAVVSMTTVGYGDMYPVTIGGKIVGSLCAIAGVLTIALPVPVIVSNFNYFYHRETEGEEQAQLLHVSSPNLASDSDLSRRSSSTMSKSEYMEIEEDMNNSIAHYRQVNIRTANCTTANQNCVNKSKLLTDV
assay.explanation: Selectivity of K+ current blockade given by Bk/BNa in Xenopus laevis
Format: functional
measure.name: Selectivity
Numbers only.

Sample records with Selectivity:
CCOc1cc(OCC)c2c(COC)cc(=O)oc2c1 :: 1.8
COCc1c2ccoc2c(OC)c2oc(=O)ccc12 :: 3
COCc1cc(=O)oc2cc3occ(C)c3cc12 :: 17
Cc1coc2cc3oc(=O)cc(CO)c3cc12 :: 4
CCOCc1c2ccoc2c(OC)c2oc(=O)ccc12 :: 2
CC1COc2cc3oc(=O)ccc3cc21 (stereo not given) :: 3
Cc1cc(=O)oc2cc3c(cc12)C(C)CO3 (stereo not given) :: 22
CCOCc1c(C)oc2c(C)c3oc(=O)cc(C)c3cc12 :: 6

Provide the reported Selectivity of each entry below, same order.
1. O=c1ccc2cc3c(-c4ccccc4)coc3cc2o1
2. CC[N+](CC)(CC)Cc1c(C)oc2c(C)c3oc(=O)cc(C)c3cc12.[Cl-]

## Output
1.4
5

* * *

assay.explanation: Compound was tested for in vitro phototoxicity against nauplii of Artemia salina after UV-irradiation
For each entry below, report its LC50 value.

Sample records with LC50:
COCc1c2occc2c(OC)c2ccc(=O)oc12 :: > 100 µM
Cc1coc2cc3oc(=O)ccc3cc12 :: 0.5 µM

Shifting focus to the compound that follows.
## Input Which LC50 value is on record for CCOc1c2ccoc2c(OCC)c2oc(=O)ccc12 ?
## Output > 100 µM

* * *

system.under.test: Potassium voltage-gated channel subfamily A member 6 (Homo sapiens, UniProt P17658)
Sequence (P17658 whole entry): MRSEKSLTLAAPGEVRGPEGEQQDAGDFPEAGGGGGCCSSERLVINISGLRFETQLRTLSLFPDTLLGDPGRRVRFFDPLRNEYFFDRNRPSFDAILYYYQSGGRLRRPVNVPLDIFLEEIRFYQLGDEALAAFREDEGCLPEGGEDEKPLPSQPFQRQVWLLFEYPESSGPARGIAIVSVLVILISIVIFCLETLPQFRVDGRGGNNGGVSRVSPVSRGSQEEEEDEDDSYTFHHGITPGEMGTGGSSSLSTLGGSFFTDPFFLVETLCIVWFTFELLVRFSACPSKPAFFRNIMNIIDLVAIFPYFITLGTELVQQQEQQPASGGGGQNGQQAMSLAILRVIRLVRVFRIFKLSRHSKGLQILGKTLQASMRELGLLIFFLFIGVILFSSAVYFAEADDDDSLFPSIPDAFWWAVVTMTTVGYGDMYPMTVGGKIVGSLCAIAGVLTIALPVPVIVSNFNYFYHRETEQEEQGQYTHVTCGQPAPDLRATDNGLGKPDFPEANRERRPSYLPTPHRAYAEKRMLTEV
assay.explanation: Blockade of peak K+ currents against Kv1.6 gene
measure.name: Kd

## Input Which Kd value is on record for COc1c2ccoc2cc2oc(=O)ccc12 ?
## Output 187 µM

* * *

system.under.test: Potassium voltage-gated channel subfamily A member 5 (Homo sapiens, UniProt P22460)
Sequence (P22460 whole entry): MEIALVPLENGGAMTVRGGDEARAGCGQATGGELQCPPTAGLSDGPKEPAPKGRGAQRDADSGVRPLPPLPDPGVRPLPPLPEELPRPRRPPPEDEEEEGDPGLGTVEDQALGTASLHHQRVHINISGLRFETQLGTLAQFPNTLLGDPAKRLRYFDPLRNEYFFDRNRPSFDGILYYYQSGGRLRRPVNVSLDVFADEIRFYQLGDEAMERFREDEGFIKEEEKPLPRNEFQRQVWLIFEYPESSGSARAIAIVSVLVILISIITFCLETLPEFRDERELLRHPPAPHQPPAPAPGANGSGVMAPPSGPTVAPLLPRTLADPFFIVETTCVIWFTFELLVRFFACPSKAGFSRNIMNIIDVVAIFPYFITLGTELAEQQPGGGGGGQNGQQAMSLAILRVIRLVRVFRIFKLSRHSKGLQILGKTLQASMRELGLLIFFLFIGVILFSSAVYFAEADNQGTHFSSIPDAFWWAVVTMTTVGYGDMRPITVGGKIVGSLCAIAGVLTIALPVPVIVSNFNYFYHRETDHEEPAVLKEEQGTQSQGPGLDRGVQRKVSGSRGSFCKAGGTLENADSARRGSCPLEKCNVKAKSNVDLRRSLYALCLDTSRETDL
assay.explanation: Blockade of peak K+ currents against Kv1.5 gene
measure.name: Kd (µM)
Give bare numbers, in µM.

## Input Which Kd value is on record for COc1c2ccoc2cc2oc(=O)ccc12 ?
## Output 177

* * *

For each entry below, report its Kd value.
system.under.test: Potassium voltage-gated channel subfamily A member 2 (Homo sapiens)
Sequence (P16389 whole entry): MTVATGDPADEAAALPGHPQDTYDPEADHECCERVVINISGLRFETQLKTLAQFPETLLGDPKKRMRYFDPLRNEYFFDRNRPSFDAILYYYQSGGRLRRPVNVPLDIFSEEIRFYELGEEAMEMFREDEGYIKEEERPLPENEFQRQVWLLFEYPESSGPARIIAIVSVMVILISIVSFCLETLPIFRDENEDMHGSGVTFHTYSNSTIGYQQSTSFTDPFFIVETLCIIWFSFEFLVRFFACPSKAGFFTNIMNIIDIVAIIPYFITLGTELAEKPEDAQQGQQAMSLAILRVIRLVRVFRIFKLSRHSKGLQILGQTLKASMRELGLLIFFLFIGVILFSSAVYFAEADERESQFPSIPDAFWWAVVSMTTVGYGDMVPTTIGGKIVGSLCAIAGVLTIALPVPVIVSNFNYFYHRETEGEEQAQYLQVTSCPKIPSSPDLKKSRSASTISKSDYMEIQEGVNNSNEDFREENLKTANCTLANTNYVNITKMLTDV
assay.explanation: Blockade of peak K+ currents against Kv1.2 gene
Answers are plain numbers, in µM.

Sample records with Kd:
COCc1cc(=O)oc2cc3occ(C)c3cc12 :: 18
COc1c2ccoc2cc2oc(=O)ccc12 :: 41

Shifting focus to the molecule that follows.
## Input Which Kd value is on record for CCOc1c2ccoc2c(OCC)c2oc(=O)ccc12 ?
## Output 23

* * *

assay.explanation: Compound was tested for in vitro phototoxicity against nauplii of Artemia salina after UV-irradiation
measure.name: LC50 (µM)
Answers are plain numbers, in µM.

COCc1cc(=O)oc2cc3occ(C)c3cc12 :: 2.5
COCc1c(C)oc2c(C)c3oc(=O)cc(C)c3cc12 :: 20

Provide the reported LC50 of each entry below, same order.
1. CC1COc2cc3oc(=O)ccc3cc21 (stereo unspecified)
2. COc1c2occc2cc2ccc(=O)oc12
3. COc1c2ccoc2cc2oc(=O)ccc12

## Output
[25, 2.2, 2.5]

* * *

system.under.test: Potassium voltage-gated channel subfamily A member 1 (Homo sapiens, UniProt Q09470)
assay.explanation: K+ channel blocking activity as blockade at 25 uM in Xenopus laevis Ranvier nodes
Format: functional
Please note: met applies when BK is 20% or greater, and not met applies otherwise.

Before answering, review these 6 worked examples.
CC1COc2cc3oc(=O)ccc3cc21 (stereo not drawn) :: met
CCOc1c2ccoc2c(OCC)c2oc(=O)ccc12 :: met
COc1c2c(cc3ccc(=O)oc13)CCO2 :: not met
CC[N+](CC)(CC)Cc1c(C)oc2c(C)c3oc(=O)cc(C)c3cc12.[Cl-] :: met
CCOc1cc(OCC)c2ccc(=O)oc2c1 :: met
COc1c2occc2c(COC(C)C)c2ccc(=O)oc12 :: not met

## Input Could you verify whether the entry COCc1cc(=O)oc2cc3occ(-c4ccccc4)c3cc12 shows BK of no less than 20%?
## Output met

## Input Could you verify whether the entry Cc1coc2cc3oc(=O)cc(C)c3cc12 shows BK of no less than 20%?
## Output met

## Input Could you verify whether the entry C=CCOCc1c2ccoc2c(OC)c2oc(=O)ccc12 shows BK of no less than 20%?
## Output met

## Input Could you verify whether the entry Cc1coc2cc3oc(=O)ccc3cc12 shows BK of no less than 20%?
## Output met

## Input Could you verify whether the entry Cc1cc(=O)oc2cc3c(cc12)C(C)CO3 (stereo not drawn) shows BK of no less than 20%?
## Output met

## Input Could you verify whether the entry O=c1ccc2cc3c(-c4ccccc4)coc3cc2o1 shows BK of no less than 20%?
## Output met

## Input Could you verify whether the entry CCOc1cc(OCC)c2c(COC)cc(=O)oc2c1 shows BK of no less than 20%?
## Output met

* * *

assay.explanation: Compound was tested for production of singlet oxygen, measured as decrease in absorbance of N,N-dimethyl-p-nitrosoaniline (RNO) at 440 nm after 5 hr of UV-A irradiation
Type: ADME
particulars: 10 µM
measure.name: O2 production (%)
Give bare numbers, in %.

COc1c2occc2cc2ccc(=O)oc12 [METHOXSALEN] :: 9
CC1COc2cc3oc(=O)ccc3cc21 (stereo not given) :: 100
Cc1coc2cc3oc(=O)ccc3cc12 :: 71
COCc1cc(=O)oc2cc3occ(C)c3cc12 :: 43

Shifting focus to the compound that follows.
## Input Which O2 production value is on record for CCOc1c2ccoc2c(OCC)c2oc(=O)ccc12 ?
## Output -4

* * *

Test system: Nucleic Acid
assay.explanation: Photobinding to Poly(dA-dT)-Poly(dA-dT)-DNA after UV-A irradiation
Assay type: nucleic-acid assay
For each entry below, report its ΔTm value.

Sample records with ΔTm:
COCc1cc(=O)oc2cc3occ(C)c3cc12 :: > 20 °C
CCOCc1c(C)oc2c(C)c3oc(=O)cc(C)c3cc12 :: > 20 °C

Shifting focus to the compound that follows.
## Input Which ΔTm value is on record for COCc1c(C)oc2c(C)c3oc(=O)cc(C)c3cc12 ?
## Output > 20 °C

* * *

system.under.test: Potassium voltage-gated channel subfamily A member 1 (Homo sapiens, UniProt Q09470)
assay.explanation: K+ channel blocking activity as blockade at 25 uM in Xenopus laevis Ranvier nodes
Type: functional
measure.name: BK (%)
One number for each entry, in %.

Sample records with BK:
CC[N+](CC)(CC)Cc1c2ccoc2c(OC)c2oc(=O)ccc12 :: 20
COc1c2occc2cc2ccc(=O)oc12 :: 5
COCc1c2ccoc2c(OC)c2oc(=O)ccc12 :: 14
CCOCc1c(C)oc2c(C)c3oc(=O)cc(C)c3cc12 :: 55
Cc1coc2cc3oc(=O)cc(CO)c3cc12 :: 11
COCc1c(C)oc2c(C)c3oc(=O)cc(C)c3cc12 :: 31
CCOCc1c2ccoc2c(OC)c2oc(=O)ccc12 :: 16
COCc1c2occc2c(OC)c2ccc(=O)oc12 :: 35
COCc1cc(=O)oc2cc3occ(C)c3cc12 :: 52

Shifting focus to the compound that follows.
## Input Which BK value is on record for COc1c2ccoc2cc2oc(=O)ccc12 ?
## Output 52
